Data origin: paper PMC11847324

Biological target: T1, Ndc80c^dwarf (S. cerevisiae, UniProt P40460 1-691; Q04477 1-213; P40014 1-221)
T1 chain 1: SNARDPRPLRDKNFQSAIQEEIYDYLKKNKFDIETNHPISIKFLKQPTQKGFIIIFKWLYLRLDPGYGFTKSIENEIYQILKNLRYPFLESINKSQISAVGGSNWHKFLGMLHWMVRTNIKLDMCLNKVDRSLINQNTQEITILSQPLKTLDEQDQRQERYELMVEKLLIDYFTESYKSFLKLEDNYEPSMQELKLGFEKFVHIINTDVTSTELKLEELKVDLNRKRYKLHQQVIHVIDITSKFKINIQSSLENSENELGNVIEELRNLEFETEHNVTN
T1 chain 2: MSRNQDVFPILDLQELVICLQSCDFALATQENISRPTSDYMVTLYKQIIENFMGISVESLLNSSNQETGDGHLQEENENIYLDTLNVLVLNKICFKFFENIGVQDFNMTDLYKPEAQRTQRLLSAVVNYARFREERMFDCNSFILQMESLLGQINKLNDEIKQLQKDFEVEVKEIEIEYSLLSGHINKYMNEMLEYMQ
T1 chain 3: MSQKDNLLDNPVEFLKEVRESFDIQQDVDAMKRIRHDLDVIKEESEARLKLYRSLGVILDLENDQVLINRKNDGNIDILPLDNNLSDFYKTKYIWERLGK
T1 chain 4: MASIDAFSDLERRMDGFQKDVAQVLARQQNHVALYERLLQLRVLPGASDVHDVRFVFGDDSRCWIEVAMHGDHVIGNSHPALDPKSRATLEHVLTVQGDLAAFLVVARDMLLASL
Experiment: FP
pKd: −log10 of the molar value. No end group written: not given here. *: point of attachment. BODIPYFLEthylmaleimide = Cc1cc(C)n2c1C=C1C=CC(CCC(=O)NCCN3C(=O)CC(*)C3=O)=[N+]1[B-]2(F)F
assay.readout: pKd

RQNMKEDITAKYAERRSKRFLISNRTTKLGPAKRAC(BODIPYFLEthylmaleimide) [Bodipy-FL Mps1(137–171)] ... 6.55
